- measured_target: FLT3wt (Homo sapiens (Human), UniProt P36888)
- Sequence (P36888 27-993): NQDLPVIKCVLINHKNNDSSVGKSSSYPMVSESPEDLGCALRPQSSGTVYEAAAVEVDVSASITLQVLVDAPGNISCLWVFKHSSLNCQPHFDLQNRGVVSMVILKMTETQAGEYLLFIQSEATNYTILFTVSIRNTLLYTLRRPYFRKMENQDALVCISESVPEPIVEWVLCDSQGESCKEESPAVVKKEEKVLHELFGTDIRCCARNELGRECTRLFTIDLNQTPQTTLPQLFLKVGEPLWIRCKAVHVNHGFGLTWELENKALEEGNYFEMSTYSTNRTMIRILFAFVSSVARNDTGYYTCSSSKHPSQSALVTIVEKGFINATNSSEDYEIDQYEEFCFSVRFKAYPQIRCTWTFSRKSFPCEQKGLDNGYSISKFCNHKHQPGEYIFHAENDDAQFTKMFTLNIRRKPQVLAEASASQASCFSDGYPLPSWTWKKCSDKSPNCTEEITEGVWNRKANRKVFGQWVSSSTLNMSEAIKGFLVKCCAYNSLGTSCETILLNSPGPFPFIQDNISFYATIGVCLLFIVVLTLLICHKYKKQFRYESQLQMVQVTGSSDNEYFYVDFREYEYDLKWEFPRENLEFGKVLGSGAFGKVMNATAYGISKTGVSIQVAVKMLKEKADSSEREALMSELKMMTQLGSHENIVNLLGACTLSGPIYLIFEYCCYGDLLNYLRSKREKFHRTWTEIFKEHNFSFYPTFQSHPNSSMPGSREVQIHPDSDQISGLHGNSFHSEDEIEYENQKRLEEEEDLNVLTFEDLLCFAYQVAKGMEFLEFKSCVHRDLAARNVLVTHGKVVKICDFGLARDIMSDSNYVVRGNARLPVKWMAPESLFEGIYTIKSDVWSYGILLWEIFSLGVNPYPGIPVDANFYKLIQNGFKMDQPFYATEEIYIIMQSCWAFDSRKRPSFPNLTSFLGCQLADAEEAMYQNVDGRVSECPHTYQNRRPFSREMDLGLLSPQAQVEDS
- procedure_text: ADP-Glo Kinase Assay, Flt3 wt
- Format: biochemical
- condition_set: 1 μM compound; read-out: Flt3wt % INH (1 μM)
Form field: inhibition at 1 µM (one value per entry).
measurement_name: inhibition at 1 µM

compound: CCn1c(N2CCNC(C)C2)nc2c([N+](=O)[O-])c(Br)c(Br)cc21 (stereo not drawn) [Example 22X]
measured_result: < 5%
--
compound: NCCCNc1nc2c([N+](=O)[O-])c(Br)c(Br)cc2[nH]1 [Example 1D]
measured_result: < 5%
--
compound: CC(C)Cn1c(NCC(O)CN)nc2c([N+](=O)[O-])c(Br)c(Br)cc21 (stereo not drawn) [Example 1Y]
measured_result: < 5%

From: patent US10174013B2
